test: self-splicing fitness, log relative to wild type (ln ratio); higher = more splicing; Tetrahymena group I intron in knt gene, E. coli kanamycin selection, DiMSum; sequences stand for … in CUCUCU…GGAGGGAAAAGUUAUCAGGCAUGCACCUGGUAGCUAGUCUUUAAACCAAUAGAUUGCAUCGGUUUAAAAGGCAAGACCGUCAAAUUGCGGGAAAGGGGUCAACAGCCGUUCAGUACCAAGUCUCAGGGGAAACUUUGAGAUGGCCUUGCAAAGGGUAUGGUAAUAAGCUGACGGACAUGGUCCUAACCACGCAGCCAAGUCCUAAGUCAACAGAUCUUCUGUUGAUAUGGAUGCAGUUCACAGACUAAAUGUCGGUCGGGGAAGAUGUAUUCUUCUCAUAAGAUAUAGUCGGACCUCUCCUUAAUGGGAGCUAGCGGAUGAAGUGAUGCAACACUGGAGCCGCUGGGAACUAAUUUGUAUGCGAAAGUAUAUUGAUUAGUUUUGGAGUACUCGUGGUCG; details: 37 °C;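 further: selection with 25 µg/mL kanamycin versus none on LB agar overnight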
PARAMETER MEASURED: self-splicing fitness (ln)
Form rule: numeric answer, no unit written next to it.

sequence_text=GGUAAGCAAUAUUACGCCAU observed_value=-1.86

The sequence identified as `CUCUAGCAAUAUUACGCGGU` registered its self-splicing fitness (ln) at -2.59

The sequence identified as `GCGCAGCAAUAUUACGCACA` registered its self-splicing fitness (ln) at -0.062

The sequence identified as `CUGAAGCAAUAUUACGCUUG` registered its self-splicing fitness (ln) at -1.79

---

assay: self-splicing fitness, log relative to wild type (ln ratio); higher = more splicing; Tetrahymena group I intron in knt gene, E. coli kanamycin selection, DiMSum; sequences stand for … in CUCUCU…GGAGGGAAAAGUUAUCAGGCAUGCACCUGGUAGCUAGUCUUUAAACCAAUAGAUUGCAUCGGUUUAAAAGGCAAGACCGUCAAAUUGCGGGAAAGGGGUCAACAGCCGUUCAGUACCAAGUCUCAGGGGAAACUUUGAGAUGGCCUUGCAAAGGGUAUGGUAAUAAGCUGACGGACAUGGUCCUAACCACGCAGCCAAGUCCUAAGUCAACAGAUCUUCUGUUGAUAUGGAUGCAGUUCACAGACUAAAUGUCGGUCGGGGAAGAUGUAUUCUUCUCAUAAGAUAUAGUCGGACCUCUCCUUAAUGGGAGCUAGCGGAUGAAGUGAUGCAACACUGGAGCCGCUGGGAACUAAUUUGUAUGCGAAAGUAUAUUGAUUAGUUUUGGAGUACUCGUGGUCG; conditions: 30 °C
PARAMETER MEASURED: self-splicing fitness (ln)
Form rule: numeric answer, no unit written next to it.

sequence_text=UAUCAGCAAUAUUACGUGCG observed_value=-0.0936
sequence_text=UCCCAGCAAUAUUACGGGUG observed_value=-1.4
sequence_text=GUUCAGCAAUAUUACGACAU observed_value=-0.0137

The sequence identified as `UUGGAGCAAUAUUACGUUUG` registered its self-splicing fitness (ln) at -4.04

The sequence identified as `GGUAAGCAAUAUUACGUUUA` registered its self-splicing fitness (ln) at -2.68

The sequence identified as `UCUAAGCAAUAUUACGCGGU` registered its self-splicing fitness (ln) at -3.76

The sequence identified as `AAACAGCAAUAUUACGCAAU` registered its self-splicing fitness (ln) at -2.97

The sequence identified as `CAAGAGCAAUAUUACGGGGA` registered its self-splicing fitness (ln) at -3.21
